Test: pharmacokinetic analysis of MN-08 in rats
Assay type: in vivo
Details: both sexes, rat, plasma, po, single intragastric dose 3 mg/kg, read-out: Cmax, peak concentration
Property name: Cmax (ng/mL)

- CCC12CC3CC(N)(C1)CC(CO[N+](=O)[O-])(C3)C2 (stereo not shown) [MN‐08]: 97.5

---

Test: brain exposure of MN-08 in rats
Format: in vivo, SD rats
Conditions: both sexes, Sprague-Dawley, rat, plasma, oral, 12 mg/kg gastric gavage, 1 h, read-out: mean concentration in plasma
Property name: concentration at 1 h

- CCC12CC3CC(N)(C1)CC(CO[N+](=O)[O-])(C3)C2 (stereo not shown): 726 ng/mL

---

Test: brain exposure of MN-08 in rats
Type: in vivo, SD rats
Conditions: both sexes, Sprague-Dawley, rat, brain, oral, 12 mg/kg gastric gavage, 24 h, read-out: mean concentration in brain
Property name: concentration at 24 h

- CCC12CC3CC(N)(C1)CC(CO[N+](=O)[O-])(C3)C2 (stereo not shown): 1660 ng/g

---

Assay: pharmacokinetic analysis of MN-08 in rats
Assay type: in vivo
Details: both sexes, rat, plasma, po, single intragastric dose 24 mg/kg, read-out: T1/2, mean terminal half-life (converted)
Property name: half-life (h)

• CCC12CC3CC(N)(C1)CC(CO[N+](=O)[O-])(C3)C2 (stereo not shown) [MN‐08] = 6.82

---

Experiment: pharmacokinetic analysis of MN-08 in rats
Assay type: in vivo
Details: both sexes, rat, plasma, po, single intragastric dose 12 mg/kg, read-out: Tmax, mean time to peak
Property name: Tmax (h)

* CCC12CC3CC(N)(C1)CC(CO[N+](=O)[O-])(C3)C2 (stereo not shown) | 1.83

---

Test: pharmacokinetic analysis of MN-08 in rats
Type: in vivo
Details: both sexes, rat, plasma, po, single intragastric dose 24 mg/kg, read-out: Tmax, mean time to peak
Property name: Tmax (h)

- CCC12CC3CC(N)(C1)CC(CO[N+](=O)[O-])(C3)C2 (stereo not shown) [MN‐08]: 4

---

Assay: brain exposure of MN-08 in rats
Assay type: in vivo, SD rats
Settings: both sexes, Sprague-Dawley, rat, plasma, oral, 12 mg/kg gastric gavage, 0.5 h, read-out: mean concentration in plasma
Property name: concentration at 0.5 h (ng/mL)

• CCC12CC3CC(N)(C1)CC(CO[N+](=O)[O-])(C3)C2 (stereo not shown) = 781

---

Assay: brain exposure of MN-08 in rats
Assay type: in vivo, SD rats
Conditions: both sexes, Sprague-Dawley, rat, oral, 12 mg/kg, 24 h, assuming 1 g brain tissue is 1 ml, read-out: concentration in the brain
Protocol: Bio-distribution studies were carried out in healthy adult rats (3 males and 3 females). All rats were administered MN-08 at a single dose of 12 mg/kg by gastric gavage. Brain and plasma were collected at 0.5, 1 and 24 h post dosing. Tissue samples were homogenized and then centrifuged at 12000 rpm for 10 min. The supernatants were injected into the LC-MS/MS system for analysis of MN-08 concentration according to the method previously described (Tian et al., 2016).
Property name: concentration at 24 h

• CCC12CC3CC(N)(C1)CC(CO[N+](=O)[O-])(C3)C2 (stereo not shown) = ~5.71 µM

---

Assay: brain exposure of MN-08 in rats
Format: in vivo, SD rats
Details: both sexes, Sprague-Dawley, rat, oral, 12 mg/kg, 0.5 h, assuming 1 g brain tissue is 1 ml, read-out: concentration in the brain
Method: Bio-distribution studies were carried out in healthy adult rats (3 males and 3 females). All rats were administered MN-08 at a single dose of 12 mg/kg by gastric gavage. Brain and plasma were collected at 0.5, 1 and 24 h post dosing. Tissue samples were homogenized and then centrifuged at 12000 rpm for 10 min. The supernatants were injected into the LC-MS/MS system for analysis of MN-08 concentration according to the method previously described (Tian et al., 2016).
Property name: concentration at 0.5 h

• CCC12CC3CC(N)(C1)CC(CO[N+](=O)[O-])(C3)C2 (stereo not shown) = ~19.9 µM
